Target: GRK2 (Homo sapiens, UniProt P25098)
Construct: purchased SignalChem A14-10G
Sequence (P25098 whole entry): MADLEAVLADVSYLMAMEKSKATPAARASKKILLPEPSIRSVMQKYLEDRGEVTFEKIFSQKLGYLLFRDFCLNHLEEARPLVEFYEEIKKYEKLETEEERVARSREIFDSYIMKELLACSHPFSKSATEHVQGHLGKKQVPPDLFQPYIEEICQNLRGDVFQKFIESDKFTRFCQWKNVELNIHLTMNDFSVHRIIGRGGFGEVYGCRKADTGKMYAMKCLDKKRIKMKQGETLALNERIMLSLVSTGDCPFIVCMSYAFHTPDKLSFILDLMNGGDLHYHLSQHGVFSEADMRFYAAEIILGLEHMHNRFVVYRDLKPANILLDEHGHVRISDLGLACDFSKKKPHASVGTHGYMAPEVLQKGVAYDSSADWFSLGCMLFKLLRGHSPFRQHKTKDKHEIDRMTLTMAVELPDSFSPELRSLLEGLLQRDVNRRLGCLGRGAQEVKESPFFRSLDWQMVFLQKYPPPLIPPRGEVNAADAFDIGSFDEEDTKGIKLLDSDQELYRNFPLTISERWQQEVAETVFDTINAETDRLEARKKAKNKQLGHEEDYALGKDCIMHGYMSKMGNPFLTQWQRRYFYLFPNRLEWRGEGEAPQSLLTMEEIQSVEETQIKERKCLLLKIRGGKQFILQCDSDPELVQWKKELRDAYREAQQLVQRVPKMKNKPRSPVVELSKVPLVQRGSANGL
Assay: GRK2 Inhibition Assay (TR-FRET, Example 7)
Assay type: biochemical
Conditions: TR-FRET GRK2 enzyme assay; read-out: B: Enzymatic GRK2: IC50 (nM) (Example 7)
Measured Endpoint: log10 IC50 (log10 of the value in nM)
Parameter value (number): base-10 log of IC50 in nM.

The compound listed as `Cn1c(CNc2cccc(C(=O)N[C@@H]3COc4c(Cl)cccc43)c2)nnc1-c1ccncn1` has a reported log10 IC50 of 1.45

The compound listed as `Cn1c(CNc2cccc(C(=O)N[C@@H](C#N)c3ccccc3F)c2)nnc1-c1ccncn1` has a reported log10 IC50 of 0.74

The compound listed as `Cn1c(CNc2cccc(C(=O)N[C@H]3CCOc4c(Cl)cccc43)c2)nnc1-c1ccncn1` has a reported log10 IC50 of 1.12

The compound listed as C[C@@H](NC(=O)c1cccc(NCc2nnc(-c3ccncn3)n2C)c1)c1ncccc1Cl [drawing 845] has a reported log10 IC50 of 1.18

The compound listed as `CCc1cnccc1CNC(=O)c1cccc(NCc2nnc(-c3ccncn3)n2[C@@H]2CCC[C@@H](NC)C2)c1` has a reported log10 IC50 of 3.00

The compound listed as `Cn1c(CNc2cccc(C(=O)N[C@H](C#N)c3ccccc3Br)c2)nnc1-c1ccncn1` has a reported log10 IC50 of 0.65

The compound listed as `Cn1c(CNc2cccc(C(=O)N[C@H](C#N)c3ccc(F)cc3F)c2)nnc1-c1ccncn1` has a reported log10 IC50 of 0.69

The compound listed as `Cn1c(CNc2cccc(C(=O)N[C@@H]3CCOc4c(Cl)cccc43)c2)nnc1-c1ccncn1` has a reported log10 IC50 of 0.56

Sourced from patent US20230009608A1
